Collected composite z-score values appear next to each entry.
- Assay notes: probe aDKK1 binding to arrayed compounds – biochemical, biotinylated probe, 635/667 nm fluorescence, primary screen (AID 1099);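 also: score merges 667nm spot fluorescence with signal to noise across triplicate slides; reference of the scale not given here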
- Condition details: small-molecule microarray, higher = more signal

Check out these entries, answers already filled in.
Molecule: CN1C(=O)C2C=CC(C(O)c3ccc(-c4ccccc4)s3)N(NC(=O)OC(C)(C)C)C2C1=O (centres undefined)
composite z-score: 0.625
//
Molecule: COCCCNC(=O)[C@@]1(CCC(=O)OC(C)(C)C)COC(c2ccc(OCCCO)cc2)=N1
composite z-score: 0.117
//
Molecule: C=CCOC(=O)[C@H]1[C@@H]2C(=O)O[C@@H](c3ccccc3)[C@@H](c3ccccc3)N2[C@@H](c2ccc(OCCOC(=O)[C@@H]3C[C@@H]4C(=O)N[C@@H](CCCC[N+](C)(C)C)C(=O)N4[C@@H]3c3ccc(O)cc3)cc2)[C@]12C(=O)Nc1ccc(I)cc12
composite z-score: 0.031
//
Molecule: O=C(NCC(O)CO)C1N=C(c2ccc(OCCCO)cc2)N(c2ccccc2)O1 (centres undefined)
composite z-score: -0.12

Next:
So what does the record say about composite z-score for N#Cc1ccc(C(O)C2C=CC3C(=O)NC(=O)C3N2Nc2ccc(Cl)cc2Cl)cc1 (centres undefined) ?
0.558

* * *

Collected composite z-score values appear next to each entry.
- Target under test: Neurogenic locus notch homolog protein 2 (Homo sapiens) (UniProt Q04721)
- Sequence (Q04721 whole entry, looked up): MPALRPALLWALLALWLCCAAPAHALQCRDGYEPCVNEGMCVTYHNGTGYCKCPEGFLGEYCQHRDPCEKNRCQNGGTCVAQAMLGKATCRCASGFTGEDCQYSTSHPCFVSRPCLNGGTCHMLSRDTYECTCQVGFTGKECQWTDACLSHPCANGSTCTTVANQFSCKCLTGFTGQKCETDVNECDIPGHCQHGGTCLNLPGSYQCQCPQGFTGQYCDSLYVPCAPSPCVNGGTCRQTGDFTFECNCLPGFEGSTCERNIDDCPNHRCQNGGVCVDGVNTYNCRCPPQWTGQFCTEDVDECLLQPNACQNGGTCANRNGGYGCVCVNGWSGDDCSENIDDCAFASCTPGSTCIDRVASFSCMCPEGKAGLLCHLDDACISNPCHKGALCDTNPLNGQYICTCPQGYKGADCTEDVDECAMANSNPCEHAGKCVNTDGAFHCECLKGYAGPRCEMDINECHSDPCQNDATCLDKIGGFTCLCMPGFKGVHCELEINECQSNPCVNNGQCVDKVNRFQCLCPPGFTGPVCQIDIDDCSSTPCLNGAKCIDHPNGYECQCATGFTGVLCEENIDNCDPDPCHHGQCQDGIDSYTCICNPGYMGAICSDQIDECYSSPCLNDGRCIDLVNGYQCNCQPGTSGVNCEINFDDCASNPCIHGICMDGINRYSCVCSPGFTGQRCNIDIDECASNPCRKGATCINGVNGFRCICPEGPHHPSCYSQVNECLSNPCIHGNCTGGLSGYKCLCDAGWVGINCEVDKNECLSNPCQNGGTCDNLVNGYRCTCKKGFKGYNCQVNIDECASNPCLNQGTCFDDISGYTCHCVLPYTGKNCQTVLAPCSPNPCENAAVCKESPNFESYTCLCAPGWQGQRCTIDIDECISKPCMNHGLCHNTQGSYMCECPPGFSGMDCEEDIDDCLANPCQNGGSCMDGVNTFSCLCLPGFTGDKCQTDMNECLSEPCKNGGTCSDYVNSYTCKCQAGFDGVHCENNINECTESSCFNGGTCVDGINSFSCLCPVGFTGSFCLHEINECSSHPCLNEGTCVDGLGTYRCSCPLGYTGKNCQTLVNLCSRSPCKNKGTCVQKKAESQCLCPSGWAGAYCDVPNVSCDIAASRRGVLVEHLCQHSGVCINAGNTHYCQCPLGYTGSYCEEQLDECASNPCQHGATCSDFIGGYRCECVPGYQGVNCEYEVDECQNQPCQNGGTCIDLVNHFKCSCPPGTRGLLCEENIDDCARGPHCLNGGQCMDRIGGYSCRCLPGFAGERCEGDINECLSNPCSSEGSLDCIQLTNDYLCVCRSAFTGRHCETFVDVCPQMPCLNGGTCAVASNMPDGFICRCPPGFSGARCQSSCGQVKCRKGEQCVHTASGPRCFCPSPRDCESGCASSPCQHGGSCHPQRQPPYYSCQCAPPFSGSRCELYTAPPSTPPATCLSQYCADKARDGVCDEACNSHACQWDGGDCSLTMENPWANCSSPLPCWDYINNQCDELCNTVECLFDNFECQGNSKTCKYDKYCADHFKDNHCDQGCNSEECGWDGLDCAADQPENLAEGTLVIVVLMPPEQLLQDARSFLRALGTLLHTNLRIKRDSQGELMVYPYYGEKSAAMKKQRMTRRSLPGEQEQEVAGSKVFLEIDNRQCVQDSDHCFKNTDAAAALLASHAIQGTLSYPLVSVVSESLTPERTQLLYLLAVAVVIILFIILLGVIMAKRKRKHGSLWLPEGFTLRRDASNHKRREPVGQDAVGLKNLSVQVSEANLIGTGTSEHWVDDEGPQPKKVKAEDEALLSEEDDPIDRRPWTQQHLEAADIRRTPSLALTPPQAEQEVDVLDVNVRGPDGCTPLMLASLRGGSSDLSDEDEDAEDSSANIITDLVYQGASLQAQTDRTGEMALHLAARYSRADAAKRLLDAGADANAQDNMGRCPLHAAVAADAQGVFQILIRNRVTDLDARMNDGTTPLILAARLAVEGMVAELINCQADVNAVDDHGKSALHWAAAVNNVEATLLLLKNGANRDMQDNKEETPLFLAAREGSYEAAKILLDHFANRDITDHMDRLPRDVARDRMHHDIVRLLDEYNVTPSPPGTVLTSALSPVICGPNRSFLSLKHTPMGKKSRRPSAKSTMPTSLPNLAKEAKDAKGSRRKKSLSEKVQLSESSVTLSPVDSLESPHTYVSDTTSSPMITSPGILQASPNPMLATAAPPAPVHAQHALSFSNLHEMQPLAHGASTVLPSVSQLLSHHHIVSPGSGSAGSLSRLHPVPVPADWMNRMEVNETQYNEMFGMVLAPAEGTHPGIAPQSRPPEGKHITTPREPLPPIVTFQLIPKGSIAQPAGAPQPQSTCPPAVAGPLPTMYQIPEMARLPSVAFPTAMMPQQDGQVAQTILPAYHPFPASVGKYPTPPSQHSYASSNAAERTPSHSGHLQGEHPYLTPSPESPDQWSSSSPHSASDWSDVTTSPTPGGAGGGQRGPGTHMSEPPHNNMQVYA
- Assay notes: small molecules binding Notch2 protein – biochemical, small-molecule microarray, 635 nm fluorescence, stem cell growth factors, primary screen (AID 1073)
- Condition details: higher = more signal
Reply with just the number.

Molecule: COc1ccc([Si](C)(C)[C@@H]2[C@@H](CC(=O)N(CCO)Cc3ccccc3)O[C@]3(C(=O)N(Cc4ccc(N5C(=O)c6cccc7cccc5c67)cc4)c4ccccc43)[C@H]2C)cc1
Target under test: Neurogenic locus notch homolog protein 2 (Homo sapiens) (UniProt Q04721)
composite z-score: 0.494
--
Molecule: C=CCOC(=O)[C@@H]1[C@H]2C(=O)O[C@H](c3ccccc3)[C@H](c3ccccc3)N2[C@H](c2ccc(OCCOC(=O)[C@H]3C[C@H]4C(=O)N[C@@H](CCCCN(C)C)C(=O)N4[C@H]3c3ccc(O)cc3)cc2)[C@@]12C(=O)Nc1ccc(I)cc12
Target under test: Neurogenic locus notch homolog protein 2 (Homo sapiens) (UniProt Q04721)
composite z-score: -0.0871
--
Molecule: COC(=O)[C@@]1(Cc2ccc(F)cc2)[C@H]2c3cc(C(=O)N(C)C)n(C)c3C[C@H]2CN1C(=O)c1ccccc1
Target under test: Neurogenic locus notch homolog protein 2 (Homo sapiens) (UniProt Q04721)
composite z-score: 1.58

So what does the record say about composite z-score for "C=CCNC(=O)[C@H]1[C@@H]2C(=O)O[C@@H](c3ccccc3)[C@@H](c3ccccc3)N2[C@@H](c2ccc(OCCO)cc2)[C@]12C(=O)Nc1ccc(C#CC3(O)CCCCCC3)cc12" ?
1.54

So what does the record say about composite z-score for "O=C1O[C@@H](c2ccccc2)[C@@H](c2ccccc2)N2[C@@H](c3ccccc3OCCO)[C@]3(C(=O)Nc4ccc(C#CCCO)cc43)[C@@H](C(=O)NC[C@H](O)c3ccccc3)[C@H]12" ?
0.381

So what does the record say about composite z-score for "O=C(NC1CC1)[C@@H]1c2ccccc2C(=O)N(Cc2cc(C(F)(F)F)cc(C(F)(F)F)c2)[C@H]1c1ccc(CO)cc1" ?
-0.134

So what does the record say about composite z-score for C=CCC(OC(C)=O)[C@@H]1[C@@H](N(Cc2ccc(-c3cccc(C(F)(F)F)c3)o2)C(=O)Cc2ccc(F)cc2)c2cc(OCCCO)ccc2N1C(=O)Cc1ccc2ccccc2c1 (stereo partly drawn) ?
-0.349

So what does the record say about composite z-score for "C#CCN1[C@@H](Cc2ccccc2)C(=O)O[C@H](Cc2ccccc2)[C@@H]1/C=C/C1CC1" ?
-0.271

So what does the record say about composite z-score for "COC(=O)[C@@]1(Cc2ccccc2)[C@H]2c3cc(C(=O)N(C)C)n(Cc4ccc(S(C)(=O)=O)cc4)c3C[C@H]2CN1C(=O)c1ccccc1" ?
1.48

* * *

- Target under test: Follistatin (Homo sapiens)
- Assay notes: FST protein binding to printed compounds – biochemical, small-molecule microarray, 635/667 nm fluorescence, primary screen (AID 1132)
- Condition details: 635 nm fluorescence, higher = more signal
Values of composite z-score greater than or equal to 0.8 map to True; values below map to False.

Would you please look over these solved cases?
Compound: O=C1NC(=O)C2C1C=CC(C(O)c1ccc([N+](=O)[O-])cc1)N2Nc1ccccn1 (stereo not given)
Label value: False
--
Compound: CN(C)CCCNC(=O)[C@@]1(C)c2ccccc2C(=O)N(Cc2ccc(OC(F)(F)F)cc2)[C@H]1c1ccc(CO)cc1
Label value: True

API: above_or_equal(metric=composite z-score, cutoff=0.8) for item "CC(C)N1C(=O)c2ccccc2[C@](C)(C(=O)NCC(F)(F)F)[C@@H]1c1ccc(CO)cc1"
False

API: above_or_equal(metric=composite z-score, cutoff=0.8) for item CC(C)OC(=O)CC(=O)CC(O)c1cccc([N+](=O)[O-])c1 (stereo not given)
False

API: above_or_equal(metric=composite z-score, cutoff=0.8) for item "C=C(COC)/C(=C/C[C@@H](OC(C)=O)c1ccccc1OCCO)c1cnc2ccccc2c1"
True

API: above_or_equal(metric=composite z-score, cutoff=0.8) for item CC1CC/C=C\[C@H]2OC34C=CCN(CCN5CCOCC5)C(=O)[C@H]3N(CCCO)C(=O)[C@@H]4C2C(=O)O1 (stereo not given in full)
False

API: above_or_equal(metric=composite z-score, cutoff=0.8) for item "O=C1O[C@@H](c2ccccc2)[C@@H](c2ccccc2)N2[C@@H](c3ccccc3OCCO)[C@]3(C(=O)Nc4ccc(C#CCCO)cc43)[C@@H](C(=O)NC[C@H](O)c3ccccc3)[C@H]12"
True

API: above_or_equal(metric=composite z-score, cutoff=0.8) for item "O=C1C[C@@](C(=O)NC2CC2)(c2ccc([N+](=O)[O-])cc2)[C@@H](c2ccc(CO)cc2)N1C1CCCCC1"
True

API: above_or_equal(metric=composite z-score, cutoff=0.8) for item "COCCOC(=O)N1C(=O)[C@@]2(c3cc(C#CCCO)ccc31)[C@H](c1ccccc1OCCO)N1[C@H](c3ccccc3)[C@H](c3ccccc3)OC(=O)[C@H]1[C@@H]2C(N)=O"
True

API: above_or_equal(metric=composite z-score, cutoff=0.8) for item C=CCC(OC(C)=O)[C@@H]1[C@@H](N(Cc2cccc3ccccc23)C(=O)c2ccc(-c3ccccc3)cc2)c2cc(OCCCO)ccc2N1C(=O)Cc1ccc2ccccc2c1 (stereo not given in full)
False

* * *

- Target under test: Fibroblast growth factor 2 (Homo sapiens) (UniProt P09038)
- Sequence (P09038 whole entry, looked up): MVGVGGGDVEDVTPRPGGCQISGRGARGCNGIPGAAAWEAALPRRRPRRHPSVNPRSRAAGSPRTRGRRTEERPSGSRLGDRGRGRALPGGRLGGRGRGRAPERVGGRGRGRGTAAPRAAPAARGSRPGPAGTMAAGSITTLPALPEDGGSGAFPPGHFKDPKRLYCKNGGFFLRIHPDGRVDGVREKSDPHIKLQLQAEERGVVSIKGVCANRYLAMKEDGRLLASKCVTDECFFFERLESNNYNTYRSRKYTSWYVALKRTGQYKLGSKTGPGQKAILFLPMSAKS
- Assay notes: basic fibroblast growth factor binding to printed compounds – biochemical, small-molecule microarray, 635/667 nm fluorescence, primary screen (AID 1133)
- Condition details: FGF2, fluorescence 635/667, higher = more signal
Readout name: composite z-score
Reply with just the number.

Check out these entries, answers already filled in.
Compound: CC(C)(C)N1CC=CC23O[C@@H]4/C=C\CCCOC(=O)C4[C@H]2C(=O)N(CCCCCO)[C@@H]3C1=O (some centres undefined)
composite z-score: -0.594

Compound: CCN(CC)c1ccc(N2CC=CC34O[C@@H]5C=CCCOC(=O)C5[C@H]3C(=O)N(C(C)CO)[C@@H]4C2=O)cc1 (some centres undefined)
composite z-score: -0.199

Compound: CCCC=C(CCC)[C@@H](NC(=O)OCC(C)C)c1ccc(C(=O)OC)cc1
composite z-score: 0.462

So what does the record say about composite z-score for C=CCC(OC(C)=O)[C@@H]1[C@@H](N(Cc2ccc(-c3ccccc3)cc2)C(=O)c2cccc3ccccc23)c2cc(OCCCO)ccc2N1C(=O)Cc1ccc(OC)cc1 (some centres undefined) ?
0.285

* * *

Collected z-score values appear next to each entry.
- Assay notes: change in splice reporter luminescence, either direction, cell-based, HEK293, spliceosome inhibition project, primary screen (AID 1101);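 also: HEK293 cells carrying a splicing-competent luciferase reporter gene; test concentration not given here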
- Condition details: HEK293 splicing luciferase reporter, 24 h, higher = more signal, called active from +8 up or from −8 down
Reply with just the number.

Compound: Cc1ccc(S[C@]2(C(=O)NCc3ccccc3)CC(=O)N(Cc3ccccc3C(F)(F)F)[C@@H]2c2ccc(CO)cc2)cc1
z-score: -0.284
--
Compound: O=C1O[C@@H](c2ccccc2)[C@@H](c2ccccc2)N2[C@@H](c3ccccc3OCCO)[C@]3(C(=O)Nc4ccc(C#CCCO)cc43)[C@@H](C(=O)NC[C@H](O)c3ccccc3)[C@H]12
z-score: -0.393
--
Compound: CO[C@H]1O[C@H](CO)[C@@H](OC(=O)Nc2ccccc2-c2ccccc2)[C@H](OC(=O)Nc2ccccc2)[C@H]1OC(=O)Nc1ccccc1
z-score: -0.299

So what does the record say about z-score for "COc1ccc(CCNC(=O)[C@@H]2c3ccccc3C(=O)N(Cc3ccccc3OC)[C@H]2c2ccc(CO)cc2)cc1" ?
0.295

So what does the record say about z-score for CC(C)(C)OC(=O)CC[C@]1(C(=O)NCC(O)CO)N=C(c2ccc(OCCCO)cc2)O[C@H]1c1ccccc1N=[N+]=[N-] (stereo not given in full) ?
-0.254

So what does the record say about z-score for "CC(C)(C)OC(=O)CC[C@@]1(C(=O)NCCN2CCOCC2)N=C(c2ccc(OCCCO)cc2)O[C@@H]1c1ccccc1CN=[N+]=[N-]" ?
-0.268
